Data credit: patent US20250163183A1

Consider the following binders; for each one, report its APC binding (nm).
- study-system: T1, human activated protein C (APC) (human, UniProt P04070 43-461)
- T1 construct: Bought (Haematologic Technologies; plasma-derived from Enzyme Research Laboratories); Two-chain disulfide-linked protease
- T1 sequence (P04070 other isoform, or with tags, fused parts or gaps): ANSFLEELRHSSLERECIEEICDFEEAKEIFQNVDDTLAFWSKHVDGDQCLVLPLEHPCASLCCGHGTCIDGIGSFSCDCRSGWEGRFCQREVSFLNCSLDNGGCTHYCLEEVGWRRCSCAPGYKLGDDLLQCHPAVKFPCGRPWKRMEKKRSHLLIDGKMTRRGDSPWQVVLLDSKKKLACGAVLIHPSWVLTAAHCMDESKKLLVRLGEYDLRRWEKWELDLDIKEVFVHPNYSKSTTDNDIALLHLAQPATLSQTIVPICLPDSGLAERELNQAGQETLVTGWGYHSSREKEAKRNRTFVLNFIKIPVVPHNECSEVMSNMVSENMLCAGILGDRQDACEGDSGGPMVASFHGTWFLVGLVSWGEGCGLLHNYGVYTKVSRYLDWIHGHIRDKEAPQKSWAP
- test-description: BLI (Octet): nanobody captured on anti-V5 sensor, dipped in 500 nM APC; buffer sensor reads 0.06
Numbers only, in nm.

{"columns": ["binder", "assay-result"],
 "data": [
  ["LP12 (SR16983-R3-P3-F06) (VHH, not shown: small tags and cut ends, Llama VHH purified from E. coli periplasm) VHH: QLQLVESGGGLVQAGDSLRLSCTSSGLTASTYAMAWFRQAPGKEREFVAVVDWKGDTTYANSVKGRFTLSRDNGKNTNYLQMNSLQPEDTALYYCAARGSPGYVARLYAHWGRGTQVTVSS", 0.31],
  ["LP9 (SR16983-R3-P3-B05) (VHH, not shown: small tags and cut ends, Llama VHH purified from E. coli periplasm) VHH: EVQLVESGGGLVQAGGSLRLSCAASGRTFVGSYVMGWFRQAPGKEREFVAASSRSTGNTVYLDSVKGRFTVSRDDAKNTLYLQMNSLKTEDTAVYYCATRASINYNAATWPYWGQGTQVTVSS", 0.33],
  ["LP7 (SR16983-R3-P2-H08) (VHH, not shown: small tags and cut ends, Llama VHH purified from E. coli periplasm) VHH: EVQLVESGGGLVQAGGSLRLSCAASGTTFDMNSMGWYRQGPGFKRELVATISMGGDTNYADSVKGRFTISRANAKNTVYMQMNSLKPEDTAVYYCNAERIWPNRRTFWGQGTQVTVSS", 0.34]
]}

For every listed record, write down its APC binding (nm).
1. LP15 (SR16983-R3-P5-H05) (VHH, not shown: small tags and cut ends, Llama VHH purified from E. coli periplasm) VHH: QLQLVESGGGLVQAGGSLRLSCAASGTTFSFVYMGWYRQAPGNQRDLVARISSDGSTNYADSVKGRFTISGDNAKNTVYLQMNSLKPEDTARYYCFWNGHTNKWGQGTQVTVSS
2. LP18 (SR16983-R4-P1-A11) (VHH, not shown: small tags and cut ends, Llama VHH purified from E. coli periplasm) VHH: QLQLVESGGGLVQPGGSLRLSCAASGFTFSTKWMYWVRQGPGKGLERVAAIDAGGTSTYYADSVKGRFTISRDNSENTVYLQMNSLESADTAVYYCARSEGGLFRGRGTQVTVSA

[0.31, 0.29]

For every listed record, write down its APC binding (nm).
1. LP11 (SR16983-R3-P3-F03) (VHH, not shown: small tags and cut ends, Llama VHH purified from E. coli periplasm; also made in CHO cells for the endothelial barrier assay) VHH: QLQLVESGGGLAQAGGSLRLSCAASGRTFVGSYVMGWFRQAPGKEREFVAASSRSTGNTVYLDSVKGRFTISRDDAKNTLFLQMNRLKPEDTAVYYCATRASVNYNYAAWPYWGQGTQVTVSS
2. LP2 (SR16983-R2-P3-H10) (VHH, not shown: small tags and cut ends, Llama VHH purified from E. coli periplasm) VHH: QVQLVESGGGLVQAGGSLRLSCAASGRPISAYTWAWFRQAPGKEREFVAAITSSAGTTYYADSVRGRFTISRDNAENTVYLRMNTLKPEDTAVYYCAADDQGDNWYDHWGQGTQVTVSS
3. LP10 (SR16983-R3-P3-E06) (VHH, not shown: small tags and cut ends, Llama VHH purified from E. coli periplasm) VHH: QVQLVESGGGLVQAGGSLRLSCAASGTIESINDMGWYRQAPGKQRELVATVSSSGMTNYADSAKGRFTISRDNAKNTMYLQMNSLKPEDTAVYYCKAHISRSYYYDSLGYDYWGQGTQVTVSS
4. LP1 (SR16983-R2-P3-D06) (VHH, not shown: small tags and cut ends, Llama VHH purified from E. coli periplasm) VHH: QLQLVESGGGLVQAGGSLRLSCAASGSTFPINVFAWYRQAPGEQRELGELVAFIGRSGTTNYGDSVKGRFTISRDNAKNTVYLQMDSLRPEDTAVYYCNLGDYWGQGTQVTVSS

0.3
0.29
0.29
0.32
